Test system: SF-268 CNS
procedureText: NCI tumour cell line growth inhibition, 48 h
As shown below, each of these compounds has a reported GI50 value.

GI50 for "COc1cc2nccc(Oc3ccc(NC(=O)c4cn(C(C)C)c(=O)n(-c5ccc(F)cc5)c4=O)cc3F)c2cc1OC" ?
4.51 µM

Try this compound too: "N#Cc1cc(S(=O)(=O)Nc2nc3ccccc3o2)c(SCc2ccccc2)cc1Cl"
31.7 µM

CC1(C)CCC[C@]2(C)c3ccccc3C(=O)CC12 (stereo partly drawn) , same question.
34.3 µM

###

Tested on: SF-539 CNS
procedureText: NCI tumour cell line growth inhibition, 48 h
// 0 strictly below 30 µM in TGI; 1 otherwise

Worked examples follow.
COC(=O)C1CCc2nnc(-c3ccccc3)n21 (stereo not drawn) :: 1
O=C(c1ccc([N+](=O)[O-])cc1)N1CCCC1 :: 1
COc1cc(C(=O)c2cocc2C(=O)c2ccc3c(c2)OCO3)cc(OC)c1OC :: 0
C=C1C[C@@H]2O[C@H]3[C@H]4[C@@H](C[C@@H](C)[C@@H](OC(C)=O)[C@H]42)[C@@H](C)CO[C@@]3(C)[C@H](OC(=O)CCCCCCC)CC1=O :: 1
N#Cc1cccc(C2C3=C(COC3=O)N(CCO)c3cc4c(cc32)OCO4)c1 (stereo not drawn) :: 0

Say whether O=c1[nH]c(=O)n(C2CC(O)C(CO)O2)cc1C(F)(F)F (stereo not drawn) shows TGI of 30 µM or more.
0

Now give it for "CO[P@@]1(=O)O[C@@H](c2ccccc2)[C@H](O)[C@]1(O)c1ccccc1" too.
1

Can you handle "Nc1c(N2CCOCC2)c(=O)nc2[nH]/c(=C\c3ccccc3O)c(=O)n12" next?
1

Now the same for "O=C(c1ccco1)N(C(=O)N1CCC(c2ccccc2)CC1)c1ccccc1"
1

Proceed to "COC(=O)N/N=C(\C)CC(=O)Nc1ccc(Cl)cc1"
1

Also check "CC[PH+](CC)CC.[Cl][Au]"
0

Same question, "CCn1c2ccccc2c2cc(C(=O)c3ccc(C)c4ccccc34)ccc21" this time
0

Please answer likewise for "CS(=O)(=O)N(c1cc(-c2ccc3ncnc(Nc4ccc(F)c(Cl)c4)c3c2)cnc1Cl)S(C)(=O)=O"
0

Now consider "Cc1cc(O)c(-c2ccc([C@@H](C)CN(C)C)cc2)c2c1[nH]c(=O)c1sccc12" .
0

What do you get for CO[C@@]1(c2ccccc2)O[C@H]2OCCC2[C@H]1c1ccc(Cl)cc1 (stereo partly drawn) ?
1

Also need CC1(C)CCC[C@]2(C)c3ccccc3C(=O)CC12 (stereo partly drawn) , thanks.
1

Entry to check: "COc1cc2c3c(n(CCCNCCCN)c(=O)c2cc1OC)-c1cc2c(cc1C3=O)OCO2"
0

Okay, and CC/C=N\N1C(N)=C(C#N)C(C#N)(C#N)C1CC (stereo not drawn) ?
1

And "CNC(=S)N1CCN(C(C)=O)C1=S" ?
1

Subsequent entry: CC(SCc1ccccc1)C(=O)O (stereo not drawn)
1

Same thing, different molecule: O=C1NC(c2ccccc2)C2(C(=O)O)CN(C3CC3)c3cc(N4CCNCC4)c(F)cc3C2N1 (stereo not drawn)
1

Would you kindly repeat that for COC1(CC[C@H](C)COC2OC(CO)C(O)C(O)C2O)O[C@H]2C[C@H]3[C@@H]4CC=C5C[C@@H](OC6OC(CO)C(OC7OC(C)C(O)C(O)C7O)C(O)C6OC6OC(C)C(O)C(O)C6O)CC[C@]5(C)[C@H]4CC[C@]3(C)[C@H]2[C@@H]1C (stereo partly drawn) ?
0

Record: "CC(=O)Oc1ccc2c(-c3ccccc3)c(Oc3ccc(Cl)cc3)c(=O)oc2c1"
1

###

System: NCI-H226 lung
procedureText: NCI tumour cell line growth inhibition, 48 h
recordedEndpoint: TGI (µM)
Hi! Could you send only the number? It should be in µM, unit omitted.

O=C1C=CC(=O)c2c(O)c(N3CCC[C@@H]3CO)c(Cl)c(O)c21 :: 3.16

# next compound below
Please provide the recorded TGI for "COc1cc(NCCCCCN=C(N)NC(N)=NC(C)C)c2ncccc2c1" , tested on NCI-H226 lung.
24.8

###

Test system: RPMI-8226 leukemia
procedureText: NCI tumour cell line growth inhibition, 48 h; in the data active = GI50 below about 0.43 µM; inactive = the rest
Select the matching outcome among 1 for active, -1 for inactive

Worked examples, 8 compounds total:
O=C1c2cc3c(cc2-c2c1c1ccc(Cl)cc1c(=O)n2CCCn1ccnc1)OCO3 :: 1
CC(C)(C)OC(=O)Nc1ccc2c(c1)C(NC(=O)Nc1cccc(C#N)c1)CC(C)(C)O2 (configuration not stated) :: -1
C[N+](C)=c1ccc2nc3c(cc(NCCCNc4cc5oc6cc(=[N+](C)C)ccc-6nc5c5ccccc45)c4ccccc43)oc-2c1 :: -1
N#CC1=C(N)NC(=O)NC12Nc1ccccc1N2 :: -1
COC(=O)N[C@H]1CCc2c(Cl)c(OC)c(OC)c(OC)c2-c2ccc(SC)c(=O)cc21 :: 1
N#Cc1cc(S(=O)(=O)Nc2nc3ccccc3o2)c(SCc2ccccc2)cc1Cl :: -1
COc1c(N2CCN(CN3C(=O)C(=Nc4ccc(S(=O)(=O)Nc5ncccn5)cc4)c4cc(Cl)ccc43)C(C)C2)c(F)cc2c(=O)c(C(=O)O)cn(C3CC3)c12 (configuration not stated) :: -1
CCN(Cc1c(F)cccc1Cl)c1ccc(CO)c(Cl)c1 :: 1

State the result this test recorded for "COc1ccc(S(=O)(=O)N(C(C)=O)c2ccccc2/C=C/c2cc[n+]([O-])cc2)cc1" .
-1

How about this compound: "CCN(CC)CCCCNc1c2ccc(Cl)cc2nc2ccc(OC)cc12"
-1

Continue with "CCn1c2ccccc2c2cc(C(=O)c3ccc(C)c4ccccc34)ccc21"
1

Follow-up item: "CC/C(=C/c1ccc(OC)cc1OC)[N+](=O)[O-]"
-1

Now the same for O=P(O)(O)OCC1OC(n2cnc3c(NCc4ccccc4)ncnc32)C(O)C1O (configuration not stated)
-1

Next entry: "COc1cc2c3c(n(CCCNCCCN)c(=O)c2cc1OC)-c1cc2c(cc1C3=O)OCO2"
-1

"O=C1N=C(Nc2nc(-c3csc(NC4=NC(=O)/C(=C\c5ccccc5)S4)n3)cs2)S/C1=C/c1ccccc1" ?
-1

Also, "O=C(Nc1cccc(C(F)(F)F)c1)Oc1ccc(Cl)c2cccnc12" please.
-1

Item: "Cc1cccc2c1[nH]c(=O)c1c3ccccc3cn21"
-1

###

Tested on: SN12C renal
procedureText: NCI tumour cell line growth inhibition, 48 h
recordedEndpoint: GI50

Answered examples (3):
N#Cc1cccc(C2C3=C(COC3=O)N(CCO)c3cc4c(cc32)OCO4)c1 (stereo not given) :: 3.81 µM
O=P(O)(O)OCC1OC(n2cnc3c(NCc4ccccc4)ncnc32)C(O)C1O (stereo not given) :: 0.509 µM
CC1(C)CCC[C@]2(C)c3ccccc3C(=O)CC12 (stereo not given in full) :: 44.9 µM

Record request: GI50 value, item "C[CH2][Sn]([CH2]C)([O]C(=O)c1ccc(F)cc1)[O]C(=O)c1ccc(F)cc1"
36 µM

What about O=C(/C=C/C12c3ccccc3C(c3ccccc31)C1C(=O)NC(=O)C12)c1ccccc1 (stereo not given) ?
2.29 µM

###

Test system: U251 CNS
procedureText: NCI tumour cell line growth inhibition, 48 h
Catalogue of TGI values

CCOC(=O)CN1C(=O)c2cc([N+](=O)[O-])cc3cc([N+](=O)[O-])cc(c23)C1=O :: > 100 µM
COc1ccc(S(=O)(=O)N(C(C)=O)c2ccccc2/C=C/c2cc[n+]([O-])cc2)cc1 :: > 10 µM
Nc1c(N2CCOCC2)c(=O)nc2[nH]/c(=C\c3ccccc3O)c(=O)n12 :: > 100 µM
O=c1c2cc3ccccc3n2c(=O)c2cc3ccccc3n12 :: > 100 µM

Entry "Nc1cccc2c1C(=O)c1cccc(NC(=O)c3ccccc3)c1C2=O" has what TGI?
13.8 µM

Also need "C[C@@H]1CC[C@@]2(NC1)O[C@H]1C[C@H]3[C@@H]4CC[C@H]5C[C@@H](O)CC[C@]5(C)[C@H]4CC[C@]3(C)[C@H]1[C@@H]2C" , thanks.
> 100 µM

Same lookup for O=C1c2cc3c(cc2CC12Cc1ccc4c(c1C2=O)CCC4)CCC3 (centres undefined) , please.
> 100 µM

// same read-out, input: CC(=O)NN1C(=O)C(Cc2ccccc2)c2ccccc21 (centres undefined)
> 100 µM

Okay, and "Cc1nc2c(=O)n(-c3ccccc3)c(=O)n(-c3ccccc3)c2o1" ?
> 100 µM

###

molecules and their reported TGI
System: OVCAR-8 ovarian
procedureText: NCI tumour cell line growth inhibition, 48 h

Bench note: what TGI did CCOC(=O)C(NC(=O)c1cccc(Cl)c1)(Nc1cccc(C)c1)C(F)(F)F (stereo not given) show?
61 µM

Same thing, different molecule: "O=c1c2ccc(Cl)cc2oc2c(CNc3ccc(S(=O)(=O)Nc4ncccn4)cc3)cccc12"
> 100 µM

What do you get for "CCN(CC)CCCCNc1c2ccc(Cl)cc2nc2ccc(OC)cc12" ?
3.35 µM
